Entries and their measured IC90 follow.
Tested on: M. tuberculosis H37Rv growth inhibition
Test: Mycobacterium tuberculosis H37Rv growth inhibition, putative kinase inhibitor library, confirmatory dose response (AID 2842);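 note: bacteria incubated one week before Alamar blue readout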

# annotated cases, reported IC90 shown
Cc1cc(Nc2ccc(C)c(Cl)c2)n2ncc(-c3ccccc3)c2n1 : 3.35 µg/mL
COc1ccc(-c2nnc(NC(=O)c3ccc(Cl)s3)o2)cc1 : 0.94 µg/mL
CC1CCc2c(sc(Nc3nc4ccc(F)cc4s3)c2C(N)=O)C1 (stereo not drawn) : 35.8 µg/mL
COc1cc(-c2nnc(NC(=O)C3CCCCC3)o2)cc(OC)c1OC : 18.4 µg/mL
O=C(Nc1nc2c(s1)CCc1ccccc1-2)c1cccc(Br)c1 : 16.8 µg/mL

Note: attention shifts to another entry.
[ask] Find the recorded IC90 belonging to `CCOc1cccc2nc(NC(=O)c3ccc(Oc4ccccc4)cc3)sc12` and report it.
[reply] 13.7 µg/mL

====

IC90 listing for selected molecules.
Test system: M. tuberculosis H37Rv growth inhibition
Experiment: Mycobacterium tuberculosis H37Rv growth inhibition, putative kinase inhibitor library, confirmatory dose response (AID 2842);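 note: bacteria incubated one week before Alamar blue readout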

Guide cases for IC90, answers given:
Cc1ccc(-c2nnc(NC(=O)c3ccc(S(=O)(=O)N(C)C4CCCCC4)cc3)o2)c(C)c1 : 39.2 mg/L
NC(=O)c1oc2ccccc2c1NC(=O)C1CC(=O)N(c2ccc(Cl)cc2)C1 (stereo not given) : 3.15 mg/L
O=C1CN(C(=O)c2cc(Cl)ccc2Cl)C(c2ccccc2)c2cc(Cl)ccc2N1 (stereo not given) : 6.59 mg/L
Cc1ccc(NC(=O)c2oc3ccccc3c2NC(=O)CCl)cc1C : 10.2 mg/L

Read the next record carefully.
[ask] Look up IC90: `CC1CCN(S(=O)(=O)c2ccc(C(=O)Nc3nnc(-c4cc(Cl)ccc4Cl)o3)cc2)CC1`
[reply] 35.4 mg/L

====

Tested on: M. tuberculosis H37Rv growth inhibition
Assay: Mycobacterium tuberculosis H37Rv growth inhibition, putative kinase inhibitor library, confirmatory dose response (AID 2842);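 note: bacteria incubated one week before Alamar blue readout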
observation_type: IC90

[ask] Field request: IC90 | item: CC1=NC2C=CC(Cl)=CC2C(c2ccccc2)=C1C(=O)/C=C/c1nc2ccccc2[nH]1 (stereo not drawn)
[reply] 0.73 µg/mL

[ask] Note, next up: `O=C(NNc1nc2c(Cl)cccc2s1)c1coc2ccccc2c1=O`
[reply] 11.1 µg/mL

[ask] What would you report for `COc1ccccc1-c1cnn2c(Nc3ccc(C)c(C)c3)cc(C)nc12` ?
[reply] 14.4 µg/mL

====

System: M. tuberculosis H37Rv growth inhibition
Experiment: Mycobacterium tuberculosis H37Rv growth inhibition, putative kinase inhibitor library, confirmatory dose response (AID 2842);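 note: bacteria incubated one week before Alamar blue readout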
The following compounds are listed with their measured IC90 values.

COc1ccc2nc(Nc3nc4c(s3)CCCC4)sc2c1 : 20.7 mg/L
COc1ccccc1-c1nnc(Nc2nc3ccc(SC)cc3s2)o1 : 15.9 mg/L

[ask] API: value(readout= IC90, system= M. tuberculosis H37Rv growth inhibition, query= `O=C(NNc1nc2c(F)cc(F)cc2s1)c1coc2ccccc2c1=O` )
[reply] 3.33 mg/L

====

Tested on: M. tuberculosis H37Rv growth inhibition
Experiment: Mycobacterium tuberculosis H37Rv growth inhibition, putative kinase inhibitor library, confirmatory dose response (AID 2842);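 note: bacteria incubated one week before Alamar blue readout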
Reported IC90 values are given for each entry in this list.

[ask] Fill blank: measured IC90 of the molecule `COc1ccc2nc(N(CCCn3ccnc3)C(=O)Cc3ccc(F)cc3)sc2c1` is ____.
[reply] 5.64 µg/mL

====

Each entry below lists one item and its recorded IC90 value.
Test system: M. tuberculosis H37Rv growth inhibition
Assay: Mycobacterium tuberculosis H37Rv growth inhibition, putative kinase inhibitor library, confirmatory dose response (AID 2842);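 note: bacteria incubated one week before Alamar blue readout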

COc1ccccc1-c1cnn2c(NC3CCCCC3)cc(C)nc12 : 13.5 µg/mL
O=C(Nc1nnc(-c2cc(Cl)ccc2Cl)o1)c1cccs1 : 0.76 µg/mL

[ask] Param readout= IC90; system= M. tuberculosis H37Rv growth inhibition; entry= `COc1cc(C=NNC(=O)Nc2cccc(Cl)c2)ccc1O` ; returns value.
[reply] 8.5 µg/mL

[ask] Another molecule to look at: `CCc1cccc2sc(N(CCCn3ccnc3)C(=O)/C=C/c3cccs3)nc12`
[reply] 0.83 µg/mL

[ask] Repeat for the following molecule: `O=C(Nc1nnc(-c2ccc(Br)cc2)o1)c1ccc(S(=O)(=O)N2CCCCCC2)cc1`
[reply] 16 µg/mL

[ask] Would you mind doing CC(C)(C)C1CCc2c(sc3nnn(CC(=O)NCc4ccco4)c(=O)c23)C1 (centres undefined) as well?
[reply] 22.3 µg/mL

[ask] Here is the next molecule: `Cc1ccccc1NCCCn1c(C)cn2c3c(=O)[nH]c(=O)n(C)c3nc12`
[reply] 15.4 µg/mL

[ask] Can you handle `O=C(Nc1nc(-c2cccs2)c(C(=O)C(F)(F)F)s1)c1cc(-c2ccccc2)nc2ccccc12` next?
[reply] 24.4 µg/mL

[ask] Item: `O=c1cnnc(N/N=C/c2cc(Br)ccc2O)[nH]1`
[reply] < 0.2 µg/mL

====

Let's look at some compounds and their measured IC90.
System: M. tuberculosis H37Rv growth inhibition
Assay: Mycobacterium tuberculosis H37Rv growth inhibition, putative kinase inhibitor library, confirmatory dose response (AID 2842);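 note: bacteria incubated one week before Alamar blue readout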

Would you please look over these solved cases?
NC(=O)c1c(NC(=O)c2ccc([N+](=O)[O-])o2)sc2c1CCCCC2 : 0.52 µg/mL
O=C(Nc1nnc(-c2ccc3c(c2)OCCO3)o1)C1CC1 : 33.9 µg/mL
O=C(Nc1nnc(-c2ccc(F)cc2)o1)c1sc2ccccc2c1Cl : 9.54 µg/mL
Cc1ccc(C(=O)Nc2nnc(-c3ccc(C)cc3C)o2)cc1 : 33.5 µg/mL

[ask] Which IC90 is listed for `CSc1ccc2nc(Nc3nnc(-c4ccc5c(c4)OCCO5)o3)sc2c1` ?
[reply] 15.1 µg/mL

[ask] What do you have for `COc1cccc2sc(N(CCCn3ccnc3)C(=O)c3cccs3)nc12` ?
[reply] 5.7 µg/mL

[ask] Ok, now `COc1ccc(Cl)c2sc(N(CCCn3ccnc3)C(=O)Cc3ccccc3)nc12`
[reply] 1.65 µg/mL

====

Tested on: M. tuberculosis H37Rv growth inhibition
Assay: Mycobacterium tuberculosis H37Rv growth inhibition, putative kinase inhibitor library, confirmatory dose response (AID 2842);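 note: bacteria incubated one week before Alamar blue readout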
observation_type: IC90

CC(=O)N1CCc2c(sc(NC(=O)c3ccc(N(C)C)cc3)c2C(N)=O)C1 : 8.5 µg/mL
Cc1ccc(-n2ncc3c(NC(C)C)ncnc32)cc1Cl : 64 µg/mL
CC(=O)Nc1nnc(-c2ccc(C)cc2C)o1 : 23.9 µg/mL

Let us move to another entry and its IC90.
[ask] Item `C/C(=N\NC(=O)c1cc(-c2ccc(Cl)s2)[nH]n1)c1ccco1` has what recorded IC90?
[reply] 6.9 µg/mL

====

Recorded IC90 for the following molecules
Tested on: M. tuberculosis H37Rv growth inhibition
Assay: Mycobacterium tuberculosis H37Rv growth inhibition, putative kinase inhibitor library, confirmatory dose response (AID 2842);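 note: bacteria incubated one week before Alamar blue readout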

Answered examples (5):
COc1ccc(O)c(/C=N/NC(=O)c2ccncc2)c1 : 0.82 µg/mL
C=CCOC(=O)COc1ccc2c(C)c(-c3ccccc3)c(=O)oc2c1 : 0.85 µg/mL
CCCCc1ccc(NCCn2c(C)c(C)n3c4c(=O)[nH]c(=O)n(C)c4nc23)cc1 : 12.6 µg/mL
COc1ccc(OC)c2sc(N(CCCn3ccnc3)C(=O)c3ccco3)nc12 : 6.7 µg/mL
CC(C)N1CCc2c(sc(NC(=O)c3ccc(Oc4ccccc4)cc3)c2C(N)=O)C1 : 12.5 µg/mL

Next molecule, please.
[ask] Suppose we examine the molecule `CCOC(CNc1ncnc2c1cnn2-c1ccc(C)cc1)OCC` ; what IC90 value has been reported?
[reply] 25.6 µg/mL

====

Listed below: IC90 values for each entry.
Test system: M. tuberculosis H37Rv growth inhibition
Assay: Mycobacterium tuberculosis H37Rv growth inhibition, putative kinase inhibitor library, confirmatory dose response (AID 2842);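 note: bacteria incubated one week before Alamar blue readout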

Answered examples (5):
Clc1ccc(Cn2nnc3c(SCc4cccnc4)ncnc32)cc1 : 13.4 µg/mL
Cc1nc2ccc(NC(=O)Nc3cccc(Cl)c3)cc2s1 : 22.3 µg/mL
O=C(Cc1ccccc1)N(CCCn1ccnc1)c1nc2c(F)cccc2s1 : 7.4 µg/mL
COc1ccc(CNC(=O)c2c(C)oc3c2C(=O)c2ccccc2C3=O)cc1 : 1.1 µg/mL
CC(C)CCn1c(N2CCN(Cc3cccc(Cl)c3)CC2)nc2c1c(=O)[nH]c(=O)n2C : 14.1 µg/mL

[ask] Give the measured IC90 of `CSc1cccc2sc(Nc3cccc(Br)c3)nc12` .
[reply] 6.73 µg/mL

[ask] And for `COc1ccc(Nc2nc(Nc3ccc(C)c(C)c3)nc3nccnc23)cc1` ?
[reply] 3.93 µg/mL

[ask] `Cc1ccc(Cn2cc3c(-c4ccc(C)c(C)c4)nnc-3c3cc4c(cc32)OCCO4)cc1` ?
[reply] 11.5 µg/mL

[ask] Check `N#Cc1ccc(C(=O)Nc2nnc(-c3ccc(Br)cc3)o2)cc1` too.
[reply] 7.39 µg/mL

[ask] What would you report for `CCOC(=O)c1c(NC(=O)/C=C/C(N)=O)sc2c1CCCC2` ?
[reply] 6.76 µg/mL

[ask] And what about the molecule `O=C(CCCN1C(=O)/C(=C\c2ccco2)SC1=S)Nc1ccccn1` ?
[reply] 4.87 µg/mL

[ask] Same for `O=C(OCc1ccco1)c1cc2ccccc2oc1=O`
[reply] 20.4 µg/mL

[ask] Follow-up entry: `CCOC(=O)CNC(=O)CSc1ncnc2c1nnn2-c1ccc(OC)cc1`
[reply] 6.79 µg/mL

[ask] Follow-up entry: `COc1cccc2sc(Nc3nc4ccc(Cl)cc4s3)nc12`
[reply] 13.9 µg/mL
